- TARGET OR SYSTEM: HLA-A02.01 (Homo sapiens, UniProt P04439, D140Y/D185E/D98H/E176V/E277Q/G131W/G231S/I119V/I121R/I166T/I218V/N151K/N90K/P208A/P217A/Q86G/Q94H/R138H/R169H)
- Construct: made in house; host or cells: E. coli
- PROTOCOL DETAILS: Class I MHC peptide binding stability (pMHC-I dissociation, 125I-labeled light chain)
- ASSAY CONTEXT: allele A02.01
Where a SMILES comes first, the peptide text is derived from it.
MEASURED QUANTITY: Stability (T1/2 (h))
One number for each entry, in h.

Take a look at these entries with their results.
CC(C)C[C@H](N)C(=O)N[C@H](C(=O)N[C@H](C(=O)N[C@H](C(=O)NCC(=O)N[C@@H](C)C(=O)N[C@H](C(=O)NCC(=O)N[C@H](C(=O)O)C(C)C)C(C)C)C(C)C)C(C)C)C(C)C : 0.6
CC(C)C[C@H](N)C(=O)N[C@H](C(=O)N[C@H](C(=O)N[C@H](C(=O)NCC(=O)N[C@@H](C)C(=O)N[C@@H](CS)C(=O)NCC(=O)N[C@H](C(=O)O)C(C)C)C(C)C)C(C)C)C(C)C (H-LVVVGACGV-OH; N-terminus and C-terminus assumed) : 0.6
CC(C)C[C@H](NC(=O)[C@@H](NC(=O)[C@H](CC(=O)O)NC(=O)[C@H](CC(C)C)NC(=O)[C@@H](NC(=O)[C@@H](N)Cc1ccc(O)cc1)[C@@H](C)O)C(C)C)C(=O)N[C@@H](CCC(=O)O)C(=O)N[C@@H](CCCNC(=N)N)C(=O)N[C@@H](CS)C(=O)O : 6.6

Incoming: Which Stability (T1/2 (h)) reading was recorded for the compound CC[C@H](C)[C@H](NC(=O)[C@@H](NC(=O)[C@H](CC(C)C)NC(=O)[C@@H](NC(=O)[C@@H]1CCCN1C(=O)[C@H](CCCNC(=N)N)NC(=O)[C@H](CCCNC(=N)N)NC(=O)[C@H](CC(N)=O)NC(=O)[C@H](CCSC)NC(=O)[C@@H](N)CO)[C@@H](C)CC)[C@@H](C)O)C(=O)O ?
Outgoing: 0.3
